Values compiled from PubChem BioAssay (EPA / NIEHS).

read-out: UDP glucuronosyltransferase (UGT1A6), UGT1A6 (gene 54578); test: LTEA_HepaRG_UGT1A6: Life Technologies and Expression Analysis (LTEA) Assay for UDP glucuronosyltransferase (UGT1A6) using HepaRG (AID 2283539); conditions: mRNA level, 48 h; actives raise or lower the signal
Activity calls are given as the source filed them. The calls were made as follows: active = hit-call score of the fitted dose curve at least 0.9, where 1 is the maximum; inactive = score below 0.9.
Classes used: active, inactive

1. CC(C)(C)c1ccccc1: inactive
2. O=C1O[C@H]([C@H](O)CO)C(O)=C1O: inactive
3. OCC(CO)n1cnc(-c2ccc(F)cc2)c1-c1ccnc(Oc2ccccc2)n1: inactive
4. COC(=O)CCC(=O)OC: inactive
5. O=C1c2c(O)cccc2Cc2cccc(O)c21: inactive
6. CCc1nc(N)nc(N)c1-c1ccc(Cl)cc1: inactive
7. CC(C)COC(=O)CCCCC(=O)OCC(C)C: inactive
8. CCCCc1nc2cccnc2n1Cc1ccc(-c2ccccc2-c2nnn[nH]2)cc1: inactive
9. CC(C)OC(=O)C(C)(C)Oc1ccc(C(=O)c2ccc(Cl)cc2)cc1: active
10. CC(C)c1cccc(C(C)C)c1NC(=O)NS(=O)(=O)c1cc(C(C)(C)O)co1: inactive
11. COC(=O)[C@H]1[C@H]2C[C@@H]3c4[nH]c5cc(OC)ccc5c4CCN3C[C@H]2C[C@@H](OC(=O)c2cc(OC)c(OC)c(OC)c2)[C@@H]1OC: active

* * *

experiment: BSK_BE3C_SRB: Viability Assessment in the BioMAP Diversity Plus: BE3C Assay (AID 2283028); settings: primary human bronchial epithelial cells;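 also: measured 24 h after chemical dosing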
The source made the active and inactive calls. How the source made its calls: active means hit-call score of the fitted dose curve at least 0.9, where 1 is the maximum; inactive means score below 0.9.
parameter.measured: outcome

1) CN(C)C(=O)NC1(c2ccccc2)CCN(CC[C@@]2(c3ccc(F)c(F)c3)CN(C(=O)c3ccccc3)CCO2)CC1: inactive
2) NC=O: inactive
3) N[C@@H](Cc1c[nH]c2ccccc12)C(=O)O: inactive
4) CCCCCCCC(=O)OC: inactive
5) CCCCC(CC)CO (configuration not stated): inactive
6) C=CCCCCCCCCCCCC: inactive
7) CSc1ccc(Oc2ccc(S(N)(=O)=O)cc2CN(C)C)cc1C: inactive

* * *

test: ACEA_AR_antagonist_AUC_viability: ACEA Biosciences xCELLigence Real-Time Cell Analysis on Androgen Receptor Antagonism for Viability (AID 2283776);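 also: 22Rv1 human prostate cancer cells growing on impedance electrode plates; area under impedance growth curve at 80 h after dosing as viability; hits lower the growth signal relative to DMSO meaning cytotoxicity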
Records with an inconclusive call do not appear. Activity calls are given as the source filed them. The calls were made as follows: active = hit-call score of the fitted dose curve at least 0.9, where 1 is the maximum; inconclusive = response in the unintended direction; inactive = score below 0.9.
Classes used: active, inactive

1) NC(=Nc1ccccc1)Nc1ccccc1: inactive
2) O=C1c2c(O)cccc2Cc2cccc(O)c21: inactive
3) CO[C@@H]1COCC[C@@H]1N[C@@H]1CC[C@@](C(=O)N2CCc3ncc(C(F)(F)F)cc3C2)(C(C)C)C1: inactive
4) Cc1cn([C@H]2C=C[C@@H](CO)O2)c(=O)[nH]c1=O: active
5) CC(C)OC(=O)C(C)(C)Oc1ccc(C(=O)c2ccc(Cl)cc2)cc1: active
6) Nc1nc(Cl)nc2c1ncn2[C@H]1C[C@H](O)[C@@H](CO)O1: active
7) Cc1c(C)c2c(c(C)c1O)CCC(C)(COc1ccc(CC3SC(=O)NC3=O)cc1)O2 (stereo not drawn): active
8) Cc1cc(Cc2ccc(N)c(C)c2)ccc1N: inactive
9) c1ccc2occc2c1: inactive
10) CC(C)c1cccc(C(C)C)c1: inactive
11) CC(=O)O: inactive
12) C/C=C/c1ccc(OC)cc1: inactive
13) CC1=C(C)S(=O)(=O)CCS1(=O)=O: active

* * *

experiment: CCTE_Shafer_MEA_acute_synchrony_index: CCTE's Neural Acute Assay for Synchrony, Shafer Lab (AID 2284027);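 also: network synchrony index of spontaneous spiking in primary rat cortical neurons on MEAs; fitted for loss of signal so actives lower synchrony relative to DMSO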
Activity calls are given as the source filed them. Rule for the calls: active = hit-call score of the fitted dose curve at least 0.9, where 1 is the maximum; inactive = score below 0.9.
Outcome codes: 1 = active, 0 = inactive

1. COC(=O)[C@H]1[C@H]2C[C@@H]3c4[nH]c5cc(OC)ccc5c4CCN3C[C@H]2C[C@@H](OC(=O)c2cc(OC)c(OC)c(OC)c2)[C@@H]1OC: 1
2. Nc1nc(=S)c2[nH]cnc2[nH]1: 1
3. OCC(CO)n1cnc(-c2ccc(F)cc2)c1-c1ccnc(Oc2ccccc2)n1: 0
4. Oc1ccc(O)cc1: 0
5. COc1ccc(OC(F)(F)F)cc1CN[C@H]1CCCN[C@H]1c1ccccc1: 0
6. CC(N)=O: 0
7. CN(C)C(=O)NC1(c2ccccc2)CCN(CCC[C@]2(c3ccc(Cl)c(Cl)c3)CCCN(C(=O)c3ccccc3)C2)CC1: 1
8. CCCCC(CC)COP(=O)(OCC(CC)CCCC)OCC(CC)CCCC (stereo not drawn): 0
9. CC1=C(C)S(=O)(=O)CCS1(=O)=O: 0
10. CCN(CC)CCOc1ccc(C(=C(Cl)c2ccccc2)c2ccccc2)cc1: 0
11. c1ccc2occc2c1: 0
12. Cc1cc(Cc2ccc(N)c(C)c2)ccc1N: 1
13. O=C(O)CN(CC(=O)O)CC(=O)O: 0

* * *

assay: BSK_3C_VCAM1: BioMAP Diversity Plus: 3C Assay for Vascular cell adhesion molecule 1 (VCAM1) Biomarker Activity (AID 2282999); details: BioMAP 3C HUVEC, VCAM1 ELISA, cytokine-stimulated; actives raise or lower the signal
The source made the active and inactive calls. How the source made its calls: active means hit-call score of the fitted dose curve at least 0.9, where 1 is the maximum; inactive means score below 0.9.
Outcome codes: active, inactive

1. NC1CCCCC1: inactive
2. CN(C)C(=O)NC1(c2ccccc2)CCN(CCC[C@]2(c3ccc(Cl)c(Cl)c3)CCCN(C(=O)c3ccccc3)C2)CC1: inactive
3. N[C@@H](Cc1c[nH]c2ccccc12)C(=O)O: inactive
4. CCCCCCC(C=O)=Cc1ccccc1: active
5. NC(=Nc1ccccc1)Nc1ccccc1: inactive
6. O=C(N[C@@H](c1ccccc1)[C@@H]1CCCCN1)c1cccc(C(F)(F)F)c1Cl: inactive

* * *

Read-out: Cytochrome P450 (CYP1A1), CYP1A1 (gene 1543)
Assay: LTEA_HepaRG_CYP1A1: Life Technologies and Expression Analysis (LTEA) Assay for Cytochrome P450 (CYP1A1) using HepaRG (AID 2283454)
Conditions: mRNA level, 48 h; actives raise or lower the signal
Protocol: LTEA_HepaRG is a cell based, multiplexed-readout assay that uses HepaRG, a human liver cell line, with measurements taken at 48 hours after chemical dosing on a 96-well plate.LTEA_HepaRG_CYP1A1 is one of 102 assay component(s) measured in the LTEA HepaRG cell culture assay. It is a marker of NR mediated metabolism.Data from the assay component LTEA_HepaRG_CYP1A1 was analyzed into 1 endpoint. […]
The source made the active and inactive calls. How the source made its calls: active means hit-call score of the fitted dose curve at least 0.9, where 1 is the maximum; inactive means score below 0.9.
Outcomes: true (active), false (inactive)

1. COc1ccc(C(=O)Nc2nc3ccccc3c(NCc3ccccc3)c2C#N)cc1: true
2. O=C1NC(=O)C(c2ccccc2)(c2ccccc2)N1: true
3. CCCCOC(=O)CCCCC(=O)OCCCC: true
4. CCCCCCCC(=O)OC: false
5. CCCCCCC(C=O)=Cc1ccccc1: false
6. CCCC(=O)O: false
7. OCC(O)CO: false
8. O=C1c2c(O)cccc2Cc2cccc(O)c21: true

* * *

assay: ATG_M_61_CIS: Attagene CIS-FACTORIAL HepG2 Assay for M61 Transcription Factor (Internal Marker) (AID 2282937); conditions: HepG2 Attagene CIS-FACTORIAL M61 internal marker reporter; actives raise or lower the signal
The source made the active and inactive calls. Rule for the calls: active = hit-call score of the fitted dose curve at least 0.9, where 1 is the maximum; inactive = score below 0.9.
parameter.measured: outcome

1) CCC(C)N(C)C(=O)c1cc2ccccc2c(-c2ccccc2Cl)n1 (stereo not drawn): inactive
2) CC(=O)O[C@]1(C(C)=O)CC[C@H]2[C@@H]3C=C(Cl)C4=CC(=O)[C@@H]5C[C@@H]5[C@]4(C)[C@H]3CC[C@@]21C: inactive
3) CCCCC(CC)COC(=O)CCCCCCCC(=O)OCC(CC)CCCC (stereo not drawn): inactive
4) COc1ccc(C(=O)Nc2nc3ccccc3c(NCc3ccccc3)c2C#N)cc1: inactive
5) CC(C)(O)c1ccc(CNC(=O)c2cccnc2Oc2ccc(F)cc2)cc1: inactive
6) C=CCc1ccc(OC)c(OC)c1: inactive
7) O=C(Oc1ccccc1)c1cccc(C(=O)Oc2ccccc2)c1: inactive
8) C/C=C/C=C/C(=O)O: inactive
9) CSc1ccc(Oc2ccc(S(N)(=O)=O)cc2CN(C)C)cc1C: inactive
10) CC(N)=O: inactive
11) CC(=O)OCC(COC(C)=O)OC(C)=O: inactive
12) NC1CCCCC1: inactive
13) CCCCC(CC)CO (stereo not drawn): inactive
14) CCCC(=O)O: inactive
15) O=C(O)c1cccnc1: inactive
16) CCCCc1nc2cccnc2n1Cc1ccc(-c2ccccc2-c2nnn[nH]2)cc1: inactive
17) COc1ccc(OC(F)(F)F)cc1CN[C@H]1CCCN[C@H]1c1ccccc1: inactive
18) CC(C)c1cccc(C(C)C)c1NC(=O)NS(=O)(=O)c1cc(C(C)(C)O)co1: inactive
19) O=C(O)CN(CC(=O)O)CC(=O)O: inactive
20) CCCCCCCCCCCCCCOS(=O)(=O)O: inactive
21) N[C@@H](Cc1c[nH]c2ccccc12)C(=O)O: inactive
22) C#CC(O)C(CC)CCCC (stereo not drawn): inactive
23) Oc1ccccc1O: inactive
24) Cc1cn([C@H]2C=C[C@@H](CO)O2)c(=O)[nH]c1=O: inactive
25) COC(=O)CCC(=O)OC: inactive
26) O=NO: inactive
27) CC(=O)CC(c1ccccc1)c1c(O)c2ccccc2oc1=O (stereo not drawn): inactive
28) NC(=Nc1ccccc1)Nc1ccccc1: inactive
